Quick list: OD450 per entry.
Molecular target: T1, cynomolgus FOLR1 protein, His Tag (ACRO F01-C52H8) (cynomolgus, UniProt A0A2K5U044 25-233)
T1 construct: Bought protein coated on ELISA plates; also called Cynomolgus/Rhesus macaque FOLR1, Protein, His Tag; not shown: His tag
T1 sequence (A0A2K5U044 entry or part of it): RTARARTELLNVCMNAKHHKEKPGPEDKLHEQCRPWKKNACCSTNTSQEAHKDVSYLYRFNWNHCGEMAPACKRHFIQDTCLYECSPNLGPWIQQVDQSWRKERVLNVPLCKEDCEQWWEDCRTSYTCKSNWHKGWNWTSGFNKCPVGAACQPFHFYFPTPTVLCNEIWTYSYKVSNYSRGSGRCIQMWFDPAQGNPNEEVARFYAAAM
Assay: ELISA, coated cyno FOLR1-His, supernatant 1x
Please give a number only; it is taken to be in OD450.

BINDER	READING UNIT	NUMERIC VALUE
F112 (antibody, V domains shown, Tested as full-length IgG with an IgG1 Fc from HEK293, as supernatant or purified; also called clone F112; anti-FOLR1 antibody F112) VH: EVQLLESGGGVVQPGRSLRLSCAASGFTFSSYGMHWVRQAPGKGLEWVAVISYDGSNKYYADSVKGRFTISRHNSKNTLYLQMNSLRAEDTAVYYCARPRAYYGAYGSSFDYWGQGTQVTVSS VL: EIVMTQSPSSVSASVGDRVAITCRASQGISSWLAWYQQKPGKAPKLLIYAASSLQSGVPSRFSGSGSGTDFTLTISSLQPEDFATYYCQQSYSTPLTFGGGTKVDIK	OD450	1.26
F100 (antibody, V domains shown, Tested as full-length IgG with an IgG1 Fc from HEK293, as supernatant or purified; also called clone F100; anti-FOLR1 antibody F100) VH: EVQLLESGGGVVQPGRSLRLSCAASGFTFSSYGMHWVRQAPGKGLEWVAVISYDGSNKYYADSVKGRFTISRPNSKNTLYLQMNSLRAEDTAVYYCARPRAYYGAYGSSFDYWGQGTQVTVSS VL: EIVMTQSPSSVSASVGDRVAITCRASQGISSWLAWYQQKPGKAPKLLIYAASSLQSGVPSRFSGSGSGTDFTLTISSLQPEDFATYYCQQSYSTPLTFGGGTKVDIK	OD450	1.16
F8 (antibody, V domains shown, Tested as full-length IgG with an IgG1 Fc from HEK293, as supernatant or purified; also called clone F8; anti-FOLR1 antibody F8) VH: EVQLLESGGGVVQHGRSLRLSCAASGFTFSSYGMHWVRQAPGKGLEWVAVISYDGSNKYYADSVKGRFTISRDNSKNTLYLQMNSLRAEDTAVYYCARPRAYYGAYGSSFDYWGQGTQVTVSS VL: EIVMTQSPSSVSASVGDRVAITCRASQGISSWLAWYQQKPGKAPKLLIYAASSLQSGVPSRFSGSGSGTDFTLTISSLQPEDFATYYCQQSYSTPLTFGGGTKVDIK	OD450	0.896
F123 (antibody, V domains shown, Tested as full-length IgG with an IgG1 Fc from HEK293, as supernatant or purified; also called clone F123; anti-FOLR1 antibody F123) VH: EVQLLESGGGVVQPERSLRLSCAASGFTFSSYGMHWVRQAPGKGLEWVAVISYDGSNKYYADSVKGRFTISRANSKNTLYLQMNSLRAEDTAVYYCARPRAYYGAYGSSFDYWGQGTQVTVSS VL: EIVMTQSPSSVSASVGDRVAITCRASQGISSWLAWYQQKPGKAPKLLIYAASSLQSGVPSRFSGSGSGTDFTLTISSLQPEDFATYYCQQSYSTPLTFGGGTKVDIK	OD450	1.36

The record that follows has no OD450 shown yet.
Write down OD450 measured for item F40 (antibody, V domains shown, Tested as full-length IgG with an IgG1 Fc from HEK293, as supernatant or purified; also called clone F40; anti-FOLR1 antibody F40) VH: EVQLLESGGGVVQPGRSLRLSCAASGFTFSSYAMHWVRQAPGKGLEWVAVISYDGSNKYYADSVKGRFIISRDNSKNTVYLQMNSLRAEDTAVYYCARPTYVFTYTGSSFDYWGQGTQVTVSS VL: DIQVTQSPSSLSASLGDTVSITCRASRGLTDSVAWYQQKPGQAPKLLIYAASTLQSGVPSRFGGSGSGSYFTLTITSLQPEDVATYYCQNYKSAPWTFGQGTKVEIK 1.35
